Provenance of the data: ChEMBL document CHEMBL1201862

# System: HT-29
# ASSAY DETAILS: NCI tumour cell line growth inhibition, 48 h
Active and inactive are the calls of the source. Rule as the data show it: active = GI50 up to about 1.1 µM and inactive = higher. Where a SMILES comes first, the peptide text is derived from it. [ ]: non-standard residue; d: D form. The star is where a group is joined. NMeF = CN[CH](Cc1ccccc1)C(=O)O; NMeV = CN[CH](C(=O)O)C(C)C; Boc = CC(C)(C)OC(=O)*; OBn = c1ccc(CO*)cc1
Reported values of GI50 for individual entries
ASSAY READOUT: GI50

INSERT INTO results (molecule, result) VALUES
  ('C=CCC(C(=O)Nc1cccc2nc[nH]c12)C(=O)OCC (stereo not drawn)', '> 100 µM (inactive)'),
  ('COC(=O)c1ccc(-n2c(C)nc(=O)c(-c3ccccc3)c2C)cc1', '> 100 µM (inactive)'),
  ('Oc1[nH]c(Nc2ccc(Cl)c(C(F)(F)F)c2)nc2ncnc1-2', '33 µM (inactive)'),
  ('CCC/C=C/C=C\C(=O)O[C@@H]1[C@@H](C)[C@]2(O)[C@@H]3C=C(C)C(=O)[C@H]3CC(COC(C)=O)=C[C@H]2[C@@H]2C(C)(C)[C@]12OC(C)=O', '40 µM (inactive)'),
  ('CCO/C=N/C1=C(C#N)C(c2ccc(Cl)cc2)c2c(-c3ccccc3)nn(-c3ccccc3)c2O1 (stereo not drawn)', '7.53 µM (inactive)'),
  ('N#Cc1c(C#N)c(SSc2c(C#N)c(C#N)c(N)n2-c2ccccc2)n(-c2ccccc2)c1N', '40.5 µM (inactive)'),
  ('Cn1cnnc1Sc1c([N+](=O)[O-])nc(-c2ccc([N+](=O)[O-])cc2)n1C', '18.4 µM (inactive)'),
  ('NS(=O)(=O)c1ccc(NC(=O)Cc2nc3ccccc3s2)cc1', '18.3 µM (inactive)'),
  ('COc1cc2c(cc1OCCCCOc1cc3c(cc1OC)C(=O)N1CCC[C@H]1C(=O)N3)N=C[C@@H]1CCCN1C2=O', '16.6 µM (inactive)'),
  ('Oc1c(Cl)c(Cl)c(O)c(-c2cnc(-c3ncc(-c4c(O)c(Cl)c(Cl)c(O)c4Cl)s3)s2)c1Cl', '35.6 µM (inactive)'),
  ('CC(C)C(NC(=O)OC(C)(C)C)C(=O)N(C)C(Cc1ccccc1)C(=O)N(C)C(C(=O)N(C)C(C(=O)OCc1ccccc1)C(C)C)C(C)C (stereo not drawn) (Boc-V[NMeF][NMeV][NMeV]-OBn; configuration not given here)', '20.2 µM (inactive)'),
  ('c1ccc2c(c1)CCN2CCc1c[nH]c2ccccc12', '> 10 µM (inactive)'),
  ('CSC1=N/C(=C\c2ccc(Cl)cc2)C(=O)N1CN1CCOCC1', '27.5 µM (inactive)'),
  ('O=P1(Oc2ccccc2)C(c2ccccc2)C(c2ccccc2)=NN1c1ccccc1 (stereo not drawn)', '18.3 µM (inactive)'),
  ('O=C1c2ccccc2-n2c1nc1ccc(Cl)cc1c2=O', '> 100 µM (inactive)'),
  ('COc1ccc([C@@H]2CC(=O)NCCCNCCCCNCCCN2)cc1', '> 100 µM (inactive)'),
  ('COc1cc(-c2c[nH]c3ccccc23)nc(-c2c[nH]c3ccccc23)n1', '3.63 µM (inactive)'),
  ('CN(C)c1n/c(=N/c2ccc3c(c2)OCO3)ss1', '38.5 µM (inactive)');

---

# Tested on: SF-268
# ASSAY DETAILS: NCI tumour cell line growth inhibition, 48 h
The source made the active and inactive calls. Rule as the data show it: active = GI50 up to about 1.1 µM and inactive = higher.
Reported values of GI50 for individual entries
ASSAY READOUT: GI50

INSERT INTO measurements (molecule, assay_readout, result) VALUES
  ('C=CC1C(OC2OC(CO)C(O)C(O)C2O)OC=C(C(=O)OC)C1CC=O (stereo unspecified)', 'GI50', '> 100 µM (inactive)'),
  ('COC(=O)C1Cc2c(n(C)c3ccccc23)C(c2ccccc2)N1 (stereo unspecified)', 'GI50', '> 100 µM (inactive)'),
  ('CC(=O)SSC1(Cl)C(C)(C)C(Cl)(SSC(C)=O)C1(C)C (stereo unspecified)', 'GI50', '43.6 µM (inactive)'),
  ('COc1ccc(OC)c2c1C(=O)C(Cl)=C(Cl)C2=O', 'GI50', '13.5 µM (inactive)'),
  ('COc1ccc2nc3ccc(OC)cc3c(SCc3ccc([N+](=O)[O-])cc3)c2c1', 'GI50', '54.7 µM (inactive)'),
  ('CNc1c2c(c3nc4ccccc4c4c3c1N=C4)NCCC2=O', 'GI50', '3.33 µM (inactive)'),
  ('CN(C)C(=O)C(F)(F)C(c1ccc(C(F)(F)F)cc1)C1C(=O)N(C)C(=O)N(C)C1=O (stereo unspecified)', 'GI50', '> 100 µM (inactive)'),
  ('CCC(C)(C)c1ccc(OCCCCNC(=O)c2ccc3ccccc3c2O)c(C(C)(C)CC)c1', 'GI50', '22.7 µM (inactive)'),
  ('COc1ccc2nc3ccc(OC)cc3c(SCC3CO3)c2c1 (stereo unspecified)', 'GI50', '13.2 µM (inactive)'),
  ('CCc1ncnc2cc(OCC3CO3)c(OC)cc12 (stereo unspecified)', 'GI50', '2.64 µM (inactive)'),
  ('CC(C)Cc1ccc(C(C)CC2=CCC(CN(C)C)C2=O)cc1 (stereo unspecified)', 'GI50', '14.9 µM (inactive)');

---

# Test system: RPMI-8226
# ASSAY DETAILS: NCI tumour cell line growth inhibition, 48 h
Active and inactive are the calls of the source. No stated cut-off is given here; in the data, active = GI50 up to about 1.1 µM and inactive = higher.
Outcomes: active, inactive

INSERT INTO measurements (molecule, class_name) VALUES
  ('O=S(=O)(O)c1ccc(/N=N/c2ccc(/N=N/c3c(O)ccc4ccccc34)c(S(=O)(=O)O)c2)cc1', 'inactive'),
  ('CCc1cc(C(=O)OC)cn1C(=N)c1ccc(Cl)cc1', 'inactive'),
  ('CCOC(=O)C12CCC(c3c(C)cccc3C)(O1)C(C(=O)OC)=C2C(=O)OC (stereo not given)', 'inactive'),
  ('CCC1(O)CC2CC(=O)OC2C1O (stereo not given)', 'inactive'),
  ('O=C1/C(=C/c2ccccc2)CN(C(=O)C(F)(F)F)C/C1=C\c1ccccc1', 'active'),
  ('CCSc1nc(N2CCOCC2)c2cn[nH]c2n1', 'inactive'),
  ('COc1ccc(-c2cc(-c3ccc(Nc4ccnc5cc(C(F)(F)F)ccc45)cc3)nc(N)c2C#N)cc1', 'inactive'),
  ('Cc1csc2c1-n1cccc1C2=O', 'inactive'),
  ('CCCCCCCC(CC(=O)O)OC(=O)CC(CCCCCCC)OC1OC(C)C(O)C(O)C1OC1OC(C)C(O)C(O)C1O (stereo not given)', 'inactive'),
  ('N#CCCN(CCC#N)c1ccc(/C=C2\N=C(c3ccccc3)N(c3ccccn3)C2=O)cc1', 'inactive');

---

# Tested on: Malme-3M
# ASSAY DETAILS: NCI tumour cell line growth inhibition, 48 h
Activity calls are given as the source filed them. Rule as the data show it: active = GI50 up to about 1.1 µM and inactive = higher.
Outcomes: active, inactive

INSERT INTO results (compound, test_target, class_name) VALUES
  ('Cc1csc2c1-n1cccc1C2=O', 'Malme-3M', 'inactive'),
  ('O=C(O)c1ccccc1/C=N/N=C1NCCN1', 'Malme-3M', 'inactive'),
  ('O=C1C[C@H](c2ccccc2)C2(C(=O)c3ccccc3C2=O)[C@@H](c2ccccc2)C1', 'Malme-3M', 'inactive'),
  ('COc1cc(/C=C\c2ccc(C)cc2)cc(OC)c1OC', 'Malme-3M', 'active'),
  ('CCN(CC)CCNc1ccc2ncn3c4ccc(O)cc4c(=O)c1c23', 'Malme-3M', 'inactive'),
  ('O=C(O)Cn1ccc(=O)c2cc([N+](=O)[O-])ccc21', 'Malme-3M', 'inactive'),
  ('CCN(CC)C(=S)Nc1ccc(-c2cc3ccc(O)cc3oc2=O)cc1', 'Malme-3M', 'inactive'),
  ('Oc1[nH]c(Nc2ccc(Cl)c(C(F)(F)F)c2)nc2ncnc1-2', 'Malme-3M', 'inactive'),
  ('CCOC(=O)C(C)c1nc2cc(N3CCN(C)CC3)c(F)cc2[nH]c1=O (configuration not stated)', 'Malme-3M', 'inactive'),
  ('CCC/C=C/C=C\C(=O)O[C@@H]1[C@@H](C)[C@]2(O)[C@@H]3C=C(C)C(=O)[C@H]3CC(COC(C)=O)=C[C@H]2[C@@H]2C(C)(C)[C@]12OC(C)=O', 'Malme-3M', 'inactive'),
  ('O=C1C=C[C@@]23CC1C(O)C[C@H]2C=Cc1ccccc13 (some centres not stated)', 'Malme-3M', 'inactive'),
  ('Cc1cn(C2OC(C)(CO)C(O)C2O)c(=O)[nH]c1=O (configuration not stated)', 'Malme-3M', 'inactive'),
  ('O=C(CC(NC(=O)C(F)(F)F)C(=O)O)OCc1ccccc1 (configuration not stated)', 'Malme-3M', 'inactive'),
  ('C/C(=N\NC(N)=S)C(CN1CCCCC1)C(C1=C(O)c2ccccc2OC1)c1ccccc1 (configuration not stated)', 'Malme-3M', 'inactive'),
  ('O=C1CSC2(CCN(CCCN3c4ccccc4Sc4ccc(Cl)cc43)CC2)N1', 'Malme-3M', 'inactive'),
  ('CC(C)C1CNC(=O)C2(/C=N/C(C(C)C)CNC(=O)C3(/C=N/1)CCCO3)CCCO2 (configuration not stated)', 'Malme-3M', 'inactive'),
  ('CCC1(O)CC2CC(=O)OC2C1O (configuration not stated)', 'Malme-3M', 'inactive'),
  ('CC(CN(C)C)C(=O)c1ccccc1 (configuration not stated)', 'Malme-3M', 'inactive'),
  ('CC1=NN(c2nc(N)nc(/C(C#N)=C\c3cccc([N+](=O)[O-])c3)n2)C(C)(C)C1', 'Malme-3M', 'inactive'),
  ('Nc1nc(Cl)cc(Nc2ccc3c(c2)CCC3)n1', 'Malme-3M', 'inactive'),
  ('O=C(O)CC1NCc2cc3ccccc3nc21 (configuration not stated)', 'Malme-3M', 'inactive'),
  ('C/C(=N\N=C(\N)SB(F)F)c1ccc2ccccc2c1', 'Malme-3M', 'inactive');
